system: HOP-92 NSCLC; test: NCI-60 one-dose screen, 48 h (100 = growth as untreated, 0 = no growth, -100 = all killed); conditions: 10 µM unless noted
The panel holds about 83,000 compounds, 20% with a hit somewhere; the sample as a whole holds those more often.
Could you label it rule met if measured growth is 60% or higher, and rule not met otherwise?

MOLECULE: COC(=O)C1CCC(NC(=O)c2csc([C@@H](C[C@H](C(C)C)N(C)C(=O)[C@@H](NC(=O)[C@H]3CCCCN3C)C(C)C)OC(C)=O)n2)CC1 (stereo partly drawn)
TEST TARGET: HOP-92 NSCLC
GROUP LABEL: rule not met

MOLECULE: CCCCCCCC[N+](C)(CCCCCCCC)CCCCCCCC
TEST TARGET: HOP-92 NSCLC
GROUP LABEL: rule not met

Exercise: Is growth at least 60%? Consider COc1cc([N+](=O)[O-])c2nc(C)ccc2c1[N+](=O)[O-]
Key: rule met

Exercise: Is growth at least 60%? Consider CC(=O)O[C@H]1C(=O)[C@@]2(C)[C@H]([C@H](OC(=O)c3ccccc3)[C@]3(O)C[C@H](OC(=O)[C@H](OC(=O)OC[C@@H]4COC(C)(C)O4)[C@@H](NC(=O)c4ccccc4)c4ccccc4)C(C)=C1C3(C)C)[C@]1(OC(C)=O)CO[C@@H]1C[C@@H]2O
Key: rule met

Exercise: Is growth at least 60%? Consider ClCCN(CCCl)c1ccc(OCc2ccccc2)cc1
Key: rule not met

Exercise: Is growth at least 60%? Consider Cc1ccc(N2COOC3(OOC2)C2CC4CC(C2)CC3C4)cc1
Key: rule met

Exercise: Is growth at least 60%? Consider Cc1cccc(N2CCN(C(C)C#N)CC2)c1 (stereo not drawn)
Key: rule met

Exercise: Is growth at least 60%? Consider CCOc1ccccc1C(=O)OCC(Cl)(Cl)Cl
Key: rule met

Exercise: Is growth at least 60%? Consider CC(=O)O[C@H](C[C@H](C(C)C)N(C)C(=O)[C@@H](NC(=O)[C@H]1CCCCN1C)C(C)C)c1cccc(C(=O)N[C@@H](Cc2ccccc2)C[C@H](C)C(=O)O)n1
Key: rule not met

Exercise: Is growth at least 60%? Consider CC12CCC=CC1CCC1C2CCC2(C)C(c3ccc(=O)oc3)CCC12O (stereo not drawn)
Key: rule not met

###

growth reference
test system: SNB-19 CNS; assay: NCI-60 one-dose screen, 48 h (100 = growth as untreated, 0 = no growth, -100 = all killed); details: 10 µM unless noted
Compounds without any hit were thinned out: in the full panel of roughly 83,000, 20% have a hit.
// note: answer is a bare numeric in %

Solved entries:
COMPOUND: Brc1ccc2c(c1)c(-c1nc(-c3c[nH]c4ncccc34)cs1)cn2CCN1CCCCC1
PARAMETER: growth
EXPERIMENTAL VALUE: 90
--
COMPOUND: COP(=S)(N1CC1)N1CC1
PARAMETER: growth
EXPERIMENTAL VALUE: 112
--
COMPOUND: N/C(=N\N=C\c1ccc(-c2ccccc2)cc1)N[N+](=O)[O-]
PARAMETER: growth
EXPERIMENTAL VALUE: 55.3
--
COMPOUND: COC(=O)C1CCC(NC(=O)c2csc([C@@H](C[C@H](C(C)C)N(C)C(=O)[C@@H](NC(=O)[C@H]3CCCCN3C)C(C)C)OC(C)=O)n2)CC1 (some centres not stated)
PARAMETER: growth
EXPERIMENTAL VALUE: 38.4
--
COMPOUND: NC(N)=N/N=C\c1c[nH]c2ccc(Br)cc12
PARAMETER: growth
EXPERIMENTAL VALUE: 67.1

Noted growth for C[n+]1c(/C=C/c2ccc(N(CCCl)CCCl)cc2)sc2ccccc21 , tested on SNB-19 CNS: 60.9

Noted growth for COc1ccc(Nc2ccc([N+](=O)[O-])cc2[N+](=O)[O-])cc1CN(CCCl)CCCl , tested on SNB-19 CNS: 22.3
